Hey, just so you know, these numbers are from ChEMBL document CHEMBL1201862.

Target: Nonstructural protein 1 (Influenza A virus, UniProt Q194T2)
Sequence (Q194T2 whole entry): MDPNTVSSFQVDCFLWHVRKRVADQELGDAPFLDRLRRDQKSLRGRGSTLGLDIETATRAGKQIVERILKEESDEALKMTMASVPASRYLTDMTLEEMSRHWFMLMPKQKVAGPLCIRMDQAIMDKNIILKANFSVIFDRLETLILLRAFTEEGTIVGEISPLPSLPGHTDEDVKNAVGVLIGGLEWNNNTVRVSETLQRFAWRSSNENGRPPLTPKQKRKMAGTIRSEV
Type: functional, Influenza A virus (A/California/07/2009(H1N1))
Active and inactive are the calls of the source.
measuredEndpoint: IC50

Find IC50 for CCc1ccc(NC(=O)N(CCN2CCOCC2)Cc2ccc3c(c2)CCCN3CC)cc1 on Nonstructural protein 1 (Influenza A virus, UniProt Q194T2) and write it down.
40.6 µM (active)

Find IC50 for CC1=NN(c2ccccc2)C(=O)C1N=Nc1ccc(N)cc1 (centres undefined) on Nonstructural protein 1 (Influenza A virus, UniProt Q194T2) and write it down.
10.5 µM (active)

Find IC50 for Cc1ccc(NC2=C(NC(=O)c3ccccc3)C(=O)c3ccccc3C2=O)cc1Cl on Nonstructural protein 1 (Influenza A virus, UniProt Q194T2) and write it down.
17.5 µM (active)

Find IC50 for Cc1cc(C(=O)N/N=C/c2c(C)nn(-c3ccccc3)c2O)[nH]n1 on Nonstructural protein 1 (Influenza A virus, UniProt Q194T2) and write it down.
11.8 µM (active)

----------
Target: Serine/threonine-protein phosphatase (Candida dubliniensis (strain CD36 / CBS 7987 / NCPF 3949 / NRRLY-17841) (Yeast))
Sequence (B9W6M3 whole entry): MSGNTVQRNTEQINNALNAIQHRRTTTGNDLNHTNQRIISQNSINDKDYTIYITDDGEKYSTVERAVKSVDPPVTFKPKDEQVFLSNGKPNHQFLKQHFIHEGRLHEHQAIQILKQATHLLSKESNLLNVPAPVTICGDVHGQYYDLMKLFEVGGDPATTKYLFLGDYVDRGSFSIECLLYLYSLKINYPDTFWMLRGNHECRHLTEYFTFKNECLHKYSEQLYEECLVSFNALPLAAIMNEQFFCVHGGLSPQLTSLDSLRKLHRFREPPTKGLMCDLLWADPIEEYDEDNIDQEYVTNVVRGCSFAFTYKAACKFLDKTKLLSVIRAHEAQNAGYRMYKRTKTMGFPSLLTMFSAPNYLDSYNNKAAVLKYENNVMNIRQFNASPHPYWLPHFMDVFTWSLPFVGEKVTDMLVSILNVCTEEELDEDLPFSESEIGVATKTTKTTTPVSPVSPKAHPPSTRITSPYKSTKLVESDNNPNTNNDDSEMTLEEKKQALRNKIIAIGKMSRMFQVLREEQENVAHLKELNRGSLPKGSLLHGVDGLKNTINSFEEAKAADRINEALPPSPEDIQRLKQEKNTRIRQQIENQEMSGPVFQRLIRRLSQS
Test: calcineurin pathway inhibitors in yeast reporter, dose response, S. cerevisiae, CDRE-lacZ, luminescence, secondary (AID 2388);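 note: yeast reporter cells carrying a calcineurin-responsive lacZ construct stimulated with calcium chloride; luminescent beta-galactosidase reporter signal in whole cells rather than isolated phosphatase activity; potency for inhibition where a drop in reporter signal means calcineurin blockade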
Format: functional, cell-based
The source made the active and inactive calls.
measuredEndpoint: EC50

{"compound": "CCc1nnc(NC(=O)CSc2ncc(-c3ccccc3)n2C)s1", "measured": "> 180 µM (inactive)"}
{"compound": "Cc1ccccc1/C=C1\\SC(=S)N(/N=C/c2cc([N+](=O)[O-])ccc2O)C1=O", "measured": "> 180 µM (inactive)"}
{"compound": "Cc1ccc(C)c(NC(S)=NNC(=O)c2csc(C(C)C)c2)c1", "measured": "> 180 µM (inactive)"}

Now let's try a different one.
Fill in reported EC50 for this entry: CCCC(=O)NC(c1ccc(C)cc1)c1ccc2cccnc2c1O (centres undefined)
> 180 µM (inactive)

----------
The entries below are paired with their reported IC50.
Target: Sentrin-specific protease 7 (Homo sapiens);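 note: Luminescence-based dose-response confirmation of ultra-high-throughput screening hits, measuring inhibition of SENP7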
Sequence (Q9BQF6 whole entry): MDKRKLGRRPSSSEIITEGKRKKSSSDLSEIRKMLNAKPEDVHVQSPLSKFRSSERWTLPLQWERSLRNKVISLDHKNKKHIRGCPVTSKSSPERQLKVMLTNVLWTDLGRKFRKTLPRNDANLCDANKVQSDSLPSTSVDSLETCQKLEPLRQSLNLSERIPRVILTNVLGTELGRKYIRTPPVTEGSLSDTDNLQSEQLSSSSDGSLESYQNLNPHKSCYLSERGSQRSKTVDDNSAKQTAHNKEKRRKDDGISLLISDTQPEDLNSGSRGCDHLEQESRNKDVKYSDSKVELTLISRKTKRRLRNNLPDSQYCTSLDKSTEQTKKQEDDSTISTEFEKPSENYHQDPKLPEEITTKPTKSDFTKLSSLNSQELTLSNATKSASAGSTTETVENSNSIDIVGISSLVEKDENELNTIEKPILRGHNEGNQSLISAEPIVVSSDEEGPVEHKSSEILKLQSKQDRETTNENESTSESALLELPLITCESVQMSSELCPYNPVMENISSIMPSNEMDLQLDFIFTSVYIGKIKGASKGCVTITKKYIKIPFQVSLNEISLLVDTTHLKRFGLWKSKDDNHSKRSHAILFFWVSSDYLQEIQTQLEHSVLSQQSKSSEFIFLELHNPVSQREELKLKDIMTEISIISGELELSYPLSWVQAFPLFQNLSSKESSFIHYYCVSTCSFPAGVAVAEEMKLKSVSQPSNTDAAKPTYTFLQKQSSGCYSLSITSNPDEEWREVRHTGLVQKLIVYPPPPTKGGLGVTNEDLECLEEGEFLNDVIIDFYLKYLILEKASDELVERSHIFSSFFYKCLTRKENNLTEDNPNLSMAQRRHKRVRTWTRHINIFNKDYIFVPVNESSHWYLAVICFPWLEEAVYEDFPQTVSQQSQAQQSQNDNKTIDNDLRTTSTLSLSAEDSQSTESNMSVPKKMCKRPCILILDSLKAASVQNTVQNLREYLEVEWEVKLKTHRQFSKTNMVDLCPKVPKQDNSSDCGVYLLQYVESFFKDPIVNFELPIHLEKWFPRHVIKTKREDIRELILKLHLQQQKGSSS
Format: functional
The source made the active and inactive calls.

Fill in reported IC50 for this entry: Cc1ccc(COc2ccc(/C=N/O)cc2)cc1
5.63 µM (active)

Fill in reported IC50 for this entry: Cc1ccc(C(=O)NNc2cc(N3CCCC3)nc(N3CCCC3)n2)cc1
1.74 µM (active)

Fill in reported IC50 for this entry: Oc1ccc(-c2nc3ccccn3c2NCc2ccco2)cc1
16 µM (active)

Fill in reported IC50 for this entry: Cc1ccc(-c2cc(-c3cccc(F)c3)[nH]n2)c(O)c1
6.27 µM (active)

Fill in reported IC50 for this entry: Oc1nc(Nc2ccccc2)sc1/C=C1\C=Nc2ccccc21
6.51 µM (active)

Fill in reported IC50 for this entry: Cc1cc(C(=O)N=Nc2c(O)n(C)c3ccccc23)c(C)o1
4.99 µM (active)

Fill in reported IC50 for this entry: CN(C)c1ccc(N=Nc2cccc3ccoc23)cc1
3.81 µM (active)

Fill in reported IC50 for this entry: Cc1cc(/C=C2\SC(=S)N(C)C2=O)c(C)n1-c1ccc(O)cc1
5.42 µM (active)

----------
Target: Zinc finger protein mex-5 (Caenorhabditis elegans)
Sequence (Q9XUB2 whole entry): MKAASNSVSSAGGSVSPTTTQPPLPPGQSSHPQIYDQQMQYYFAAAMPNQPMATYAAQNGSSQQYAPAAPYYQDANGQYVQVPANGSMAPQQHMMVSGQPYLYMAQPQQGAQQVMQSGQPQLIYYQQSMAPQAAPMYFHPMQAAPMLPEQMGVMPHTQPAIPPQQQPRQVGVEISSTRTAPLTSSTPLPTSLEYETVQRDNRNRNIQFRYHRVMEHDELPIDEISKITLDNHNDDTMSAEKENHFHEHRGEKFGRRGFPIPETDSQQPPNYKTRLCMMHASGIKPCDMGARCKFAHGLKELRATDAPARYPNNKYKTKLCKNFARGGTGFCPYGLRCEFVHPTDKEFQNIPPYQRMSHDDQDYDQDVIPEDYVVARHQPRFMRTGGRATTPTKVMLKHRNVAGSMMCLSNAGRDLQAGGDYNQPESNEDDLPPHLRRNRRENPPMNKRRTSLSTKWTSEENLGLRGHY
Assay: MEX-5/TCR-2 RNA interaction inhibitors, dose response, biochemical, C. elegans, fluorescence polarization (AID 1960)
Activity calls are given as the source filed them.
measuredEndpoint: EC50

{"molecule": "CCOc1ccc(-c2nn(-c3ccccc3)cc2/C=C2\\SC(=S)N(C3CCS(=O)(=O)C3)C2=O)cc1 (stereo not given)", "EC50": "> 300 µM (not active)"}
{"molecule": "CCn1nc(C)c(/C=C2\\CCCC3=C2OC(N)=C(C#N)C3c2c(C)nn(CC)c2C)c1C (stereo not given)", "EC50": "51.8 µM (active)"}
{"molecule": "Cc1cc(/C=C(\\C#N)C(=O)Nc2ccccc2)c(C)n1-c1ccc(C(=O)O)cc1", "EC50": "> 300 µM (not active)"}
{"molecule": "O=c1ccc2[n+]([O-])c3ccc(O)cc3oc-2c1", "EC50": "37.7 µM (active)"}

Fill in reported EC50 for this entry: N#CC1=C(N)OC2=C(C(=O)CCC2)C1c1cc2c(cc1Br)OCO2 (stereo not given)
> 300 µM (not active)

----------
Molecular target: DNA repair protein RAD52 homolog (Homo sapiens, UniProt P43351)
Sequence (P43351 whole entry): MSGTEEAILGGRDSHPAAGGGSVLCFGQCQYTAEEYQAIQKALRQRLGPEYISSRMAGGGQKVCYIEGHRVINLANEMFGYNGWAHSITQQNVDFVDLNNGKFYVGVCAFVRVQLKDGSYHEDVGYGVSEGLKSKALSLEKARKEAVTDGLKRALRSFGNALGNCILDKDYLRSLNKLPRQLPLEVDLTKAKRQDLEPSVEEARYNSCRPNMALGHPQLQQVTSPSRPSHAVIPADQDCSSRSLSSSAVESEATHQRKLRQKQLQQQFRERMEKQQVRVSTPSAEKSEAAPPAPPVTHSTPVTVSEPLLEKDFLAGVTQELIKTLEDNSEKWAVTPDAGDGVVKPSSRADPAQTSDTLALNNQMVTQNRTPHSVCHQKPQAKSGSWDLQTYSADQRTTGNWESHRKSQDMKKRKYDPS
Format: functional, biochemical
Active and inactive are the calls of the source.
measuredEndpoint: AC50

{"structure": "COc1ccc(-c2nc(NCCCN(C)C)c3ccccc3n2)cc1", "AC50": "2.39 µM (active)"}
{"structure": "Cn1c(NCCN2CCCC2)nc2cc(-c3ccccc3)sc2c1=O", "AC50": "16.2 µM (active)"}
{"structure": "Cc1ccsc1-c1cc2nc(NCCCN(C)C)n(C)c(=O)c2s1", "AC50": "9.79 µM (active)"}
{"structure": "COc1ccc(-c2cnc3c(NC(C)=O)cc(-c4cccc(C(=O)NCCN(C)C)c4)cn23)cc1OC", "AC50": "2.33 µM (active)"}
{"structure": "COc1cc2nc(Nc3ccc(C)c(C)c3)nc(N)c2cc1OC", "AC50": "5.47 µM (active)"}

Now let's try a different one.
Fill in reported AC50 for this entry: CCc1nc(N=C(N)N)nc2ccccc12
20.2 µM (active)

----------
Biological target: Leucine aminopeptidase (Plasmodium falciparum 3D7, UniProt Q8IL11)
Sequence (Q8IL11 whole entry): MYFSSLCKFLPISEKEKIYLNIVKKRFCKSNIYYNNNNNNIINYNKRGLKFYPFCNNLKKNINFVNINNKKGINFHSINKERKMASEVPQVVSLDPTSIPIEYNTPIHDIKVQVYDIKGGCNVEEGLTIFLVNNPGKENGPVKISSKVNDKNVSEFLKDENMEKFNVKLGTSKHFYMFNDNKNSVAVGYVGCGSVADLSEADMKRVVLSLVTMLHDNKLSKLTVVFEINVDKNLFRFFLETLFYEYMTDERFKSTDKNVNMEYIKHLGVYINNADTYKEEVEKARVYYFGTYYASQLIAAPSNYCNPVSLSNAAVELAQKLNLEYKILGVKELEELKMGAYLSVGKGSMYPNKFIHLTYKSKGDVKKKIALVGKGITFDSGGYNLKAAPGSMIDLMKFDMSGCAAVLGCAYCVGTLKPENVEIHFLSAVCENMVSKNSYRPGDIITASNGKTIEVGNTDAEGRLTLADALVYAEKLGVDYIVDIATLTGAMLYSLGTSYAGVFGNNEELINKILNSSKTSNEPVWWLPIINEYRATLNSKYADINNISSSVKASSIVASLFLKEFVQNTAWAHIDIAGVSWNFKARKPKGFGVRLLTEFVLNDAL
Experiment: P. falciparum M17LAP inhibitors, primary screen, biochemical, fluorogenic H-Leu-NHMec substrate, 1536-well (AID 1619)
Assay type: functional
Calls of active or inactive are those of the source.
measuredEndpoint: IC50

Example entries and their recorded answers appear below.
{"molecule": "Cc1ccc(-c2c(C)sc(NC(=O)C3C4CCC(O4)C3C(=O)O)c2C(=O)OC(C)C)cc1 (stereo not given)", "IC50": "7.67 µM (active)"}
{"molecule": "Cc1ccc(C(=O)Nc2nc(=O)n(C(=O)c3ccccc3Cl)s2)cc1", "IC50": "13.8 µM (active)"}
{"molecule": "O=C(O)Cc1ccc(NC(=O)Nc2cccc(Cl)c2)cc1", "IC50": "1.7 µM (active)"}
{"molecule": "Cc1cc(O)nc(SCC(=O)Nc2cccc3ccccc23)c1C#N", "IC50": "2.2 µM (active)"}

Find IC50 for CCN(c1cccc(C)c1)S(=O)(=O)c1ccc2[nH]c(=O)c(=O)[nH]c2c1 on Leucine aminopeptidase (Plasmodium falciparum 3D7, UniProt Q8IL11) and write it down.
1.62 µM (active)
